molecular target: hSERT (Homo sapiens, UniProt P31645)
Sequence (P31645 whole entry): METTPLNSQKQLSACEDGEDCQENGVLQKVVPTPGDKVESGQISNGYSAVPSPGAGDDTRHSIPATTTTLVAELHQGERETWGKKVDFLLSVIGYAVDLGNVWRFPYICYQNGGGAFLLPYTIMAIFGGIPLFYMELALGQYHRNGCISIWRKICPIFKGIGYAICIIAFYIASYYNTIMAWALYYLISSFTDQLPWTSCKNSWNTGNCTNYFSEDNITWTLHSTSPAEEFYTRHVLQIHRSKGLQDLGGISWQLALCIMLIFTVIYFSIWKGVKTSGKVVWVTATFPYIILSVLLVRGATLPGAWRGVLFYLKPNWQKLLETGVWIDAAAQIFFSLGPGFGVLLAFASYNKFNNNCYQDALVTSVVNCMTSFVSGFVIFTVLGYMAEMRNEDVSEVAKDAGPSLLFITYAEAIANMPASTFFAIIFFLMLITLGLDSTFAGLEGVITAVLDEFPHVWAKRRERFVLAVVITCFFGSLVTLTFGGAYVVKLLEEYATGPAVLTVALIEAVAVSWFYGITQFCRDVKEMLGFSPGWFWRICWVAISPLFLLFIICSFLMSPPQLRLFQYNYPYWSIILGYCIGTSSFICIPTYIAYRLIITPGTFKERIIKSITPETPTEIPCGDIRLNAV
measured_parameter: IC50

INSERT INTO results (molecule, assay_value) VALUES
  ('NCCC1(COCc2cc(-c3ccccc3Cl)cc(C(F)(F)F)c2)OCc2ccccc21 (stereo not drawn)', '> 300 nM'),
  ('NCCC1(COCc2cc(C(F)(F)F)cc(C(F)(F)F)c2)OCc2ccccc21 (stereo not drawn)', '100 to 300 nM'),
  ('NCCC1(COCc2cc(-c3ccc(F)c(F)c3)cc(C(F)(F)F)c2)OCc2ccccc21 (stereo not drawn)', '100 to 300 nM'),
  ('NCCCC1(COCc2cc(C(F)(F)F)cc(C(F)(F)F)c2)OCc2ccccc21 (stereo not drawn)', '0.01 to 100 nM'),
  ('CN(C)CCC1(COCc2cc(N3CCOCC3)cc(C(F)(F)F)c2)OCc2ccccc21 (stereo not drawn)', '0.01 to 100 nM'),
  ('N#Cc1ccccc1-c1cc(COCC2(CCN)OCc3ccccc32)cc(C(F)(F)F)c1 (stereo not drawn)', '100 to 300 nM');

Input NCCC1(COCc2cc(-c3ccc(Cl)cc3)cc(C(F)(F)F)c2)OCc2ccccc21 (stereo not drawn) . Output IC50: 100 to 300 nM

Input N#Cc1ccc2c(c1)COC2(CCN)COCc1cc(Br)cc(C(F)(F)F)c1 (stereo not drawn) . Output IC50: 0.01 to 100 nM

Input NCCC1(COCc2cc(-c3ccc(F)cc3F)cc(C(F)(F)F)c2)OCc2ccccc21 (stereo not drawn) . Output IC50: 100 to 300 nM

Input NCCC1(COCc2cc(Cl)cc(Br)c2)OCc2ccccc21 (stereo not drawn) . Output IC50: 0.01 to 100 nM

Input NCCC1(COCc2cc(-c3cccc(Cl)c3)cc(C(F)(F)F)c2)OCc2ccccc21 (stereo not drawn) . Output IC50: > 300 nM

Input CN(C)CCC1(COCc2cc(-c3ccc(C#N)cc3)cc(C(F)(F)F)c2)OCc2ccccc21 (stereo not drawn) . Output IC50: 100 to 300 nM

###

The listing below reports IC50 for compounds tested on hSERT (Homo sapiens, UniProt P31645).

Field: example entries. Status: answers known.
INSERT INTO results (compound, measured_parameter, assay_value) VALUES
  ('NCCC1(COCc2cc(-c3ccncc3)cc(C(F)(F)F)c2)OCc2ccccc21 (centres unmarked) [Example 3]', 'IC50', '100 to 300 nM'),
  ('NCCC1(COCc2cc(-c3ccccc3C(N)=O)cc(C(F)(F)F)c2)OCc2ccccc21 (centres unmarked) [Example 5]', 'IC50', '> 300 nM'),
  ('CN(C)CCC1(COCc2cc(Br)cc(C(F)(F)F)c2)OCc2cc(C#N)ccc21 (centres unmarked) [Example 22]', 'IC50', '> 300 nM');

Value sought: IC50, system hSERT (Homo sapiens, UniProt P31645), item NCCC1(COCc2cc(Br)cc(C(F)(F)F)c2)OCc2ccccc21 (centres unmarked) [Example 1] . Result: 0.01 to 100 nM

Value sought: IC50, system hSERT (Homo sapiens, UniProt P31645), item NCCC1(COCc2cc(N3CCOCC3)cc(C(F)(F)F)c2)OCc2ccccc21 (centres unmarked) [Example 16] . Result: > 300 nM

Value sought: IC50, system hSERT (Homo sapiens, UniProt P31645), item CN(C)CCC1(COCc2cc(Cl)cc(-c3ccc(C#N)cc3)c2)OCc2ccccc21 (centres unmarked) [Example 33] . Result: 0.01 to 100 nM

Value sought: IC50, system hSERT (Homo sapiens, UniProt P31645), item CN(C)CCC1(COCc2cc(C(F)(F)F)cc(C(F)(F)F)c2)OCc2ccccc21 (centres unmarked) [Example 36] . Result: 0.01 to 100 nM

Value sought: IC50, system hSERT (Homo sapiens, UniProt P31645), item N#Cc1ccc2c(c1)COC2(CCN)COCc1cc(C(F)(F)F)cc(C(F)(F)F)c1 (centres unmarked) [Example 23] . Result: 100 to 300 nM
